Hello, the source for this data is PubChem BioAssay AID1996, in case you need it.

- setup-conditions: buffer; pH 7.4; 200.0 µM
Let's look at some molecules and their measured solubility kinetic.
Report only the number, with the unit µg/mL understood.

Query: Entry O=C(CSCc1ccc(Cl)cc1)NCCSCc1ccco1 : reported solubility kinetic = ?
Response: 36.3

Query: Moving on to O=C(NCCCCCCNC(=O)c1ccccc1O)c1ccccc1O
Response: 1.2

Query: Moving on to O=C(Nc1ccc(N2CCOCC2)cc1)c1cccc(S(=O)(=O)N2CCOCC2)c1
Response: 15.1

Query: Moving on to O=c1oc2ccccc2c(Cl)c1CN1CCCCC1
Response: 41.4

Query: Moving on to CC(=O)NC(C)C(=O)OCC(=O)c1ccc(-c2ccccc2)cc1 (stereo not given)
Response: 21.9

Query: Moving on to CCc1ccccc1NC(=O)Nc1ccsc1C(=O)OC
Response: 16.2

Query: Moving on to O=C(c1ccc(Cl)cc1)N1CCOc2ccccc21
Response: 40.3

Query: Moving on to CCOc1ccc(NC(=O)c2cc(OC)nc3ccccc23)cc1
Response: 0.6

Query: Moving on to CCCCN=CC1=C(O)CC(c2ccccc2)CC1=O (stereo not given)
Response: 34.9

Query: Moving on to COC(=O)c1cccc(NC(=O)CN2CCc3ccccc3C2)c1
Response: 39.6

Query: Moving on to CCOC(=O)Nc1ccc2c(c1)N(C(=O)CN(C)C)c1ccccc1CC2.Cl
Response: 57.7

Query: Moving on to O=C(C(Cl)c1ccccc1)N1CCOCC1 (stereo not given)
Response: 33.5

Query: Moving on to O=C(Nc1ccccc1F)N1CCCC1c1cccnc1 (stereo not given)
Response: 40.9

Query: Moving on to CC(NC(=O)c1cccs1)c1ccc(Br)cc1 (stereo not given)
Response: 3.8

Query: Moving on to O=C(NCCOc1ccccc1F)Nc1ccc(Br)cc1
Response: 2.1

Query: Moving on to O=C1C=CC(=O)N1
Response: 9

Query: Moving on to O=C(Nc1ccc(F)cc1F)NC1CCCc2ccccc21 (stereo not given)
Response: 0.3

---

- setup-conditions: buffer; pH 7.4; 200.0 µM
readout-label: solubility kinetic (µg/mL)
Report only the number, with the unit µg/mL understood.

A selection of reference data follows.
compound | unit-text | solubility kinetic
CN(C)S(=O)(=O)c1ccc(C(=O)Nc2ccc3nc(N4CCOCC4)sc3c2)cc1 | µg/mL | 4.1
CC(C)(C)c1ccc(OCC(=O)NCCN2CCOCC2)cc1.Cl | µg/mL | 53
O=C(CNC(=O)c1ccc(Cl)cc1)c1ccccc1 | µg/mL | 6

Query: Entry COc1cccc(C(O)c2nc3ccccc3n2C)c1 (configuration not stated) : reported solubility kinetic = ?
Response: 28.9

Query: Moving on to COc1ccc(/C=C/C(=O)OCC(=O)N2CCCCCC2)cc1OC
Response: 37.7

Query: Moving on to CCCC1CC(C(=O)Nc2ccccc2)C(=O)O1 (configuration not stated)
Response: 33

---

- setup-conditions: buffer; pH 7.4; 200.0 µM
Entries are sorted into classes by solubility kinetic as follows: lo (below 6 µg/mL), med (6 µg/mL to below 20 µg/mL), hi (20 µg/mL or more)

compound | assigned-class
Cc1cc(Br)ccc1S(=O)(=O)NCc1ccccc1 | hi
O=C(CSc1ncnc2ccccc12)N1CCNC1=O | hi
CC(C)(C)c1ccc(C(=O)NCc2ccco2)cc1 | med
CCC1Cc2c(nc(N)c3c(N)nc(N4CCOCC4)c(C#N)c23)O1 (centres undefined) | med
Cc1ccc(CN2C(=O)CSC2c2ccc(F)cc2)cc1 (centres undefined) | med

Query: Which category fits this record: CC(C)S(=O)(=O)c1csc(C(=O)Nc2ccc(F)cc2)c1N
Response: med

Query: Moving on to C#CC(CCN1CCCCC1)(OC)c1ccccc1.Cl (centres undefined)
Response: hi

Query: Moving on to Cc1ccc(C)c(NC(=O)CC2Oc3ccccc3NC2=O)c1 (centres undefined)
Response: lo

Query: Moving on to CCc1nonc1NC(=O)COc1cc(C)c(Cl)c(C)c1
Response: lo

Query: Moving on to CCOc1ccccc1NC(=S)NC1CC2CCC1C2 (centres undefined)
Response: lo

Query: Moving on to COc1ccccc1NC(=O)/C(C#N)=C/c1cccn1C
Response: lo

Query: Moving on to CSc1ccccc1C(=O)N(C)Cc1ccccc1
Response: hi

Query: Moving on to Cc1nc(NC(=O)COC(=O)CNC(=O)c2ccco2)c(Cl)cc1Cl
Response: hi

Query: Moving on to CC(C)n1cnnc1SCC(=O)Nc1cccnc1Cl
Response: hi

Query: Moving on to COC(=O)Cn1cc(C=C2C(=O)NC(=O)NC2=O)c2ccccc21
Response: med
